Exercise: state measured growth inhibition for each of the compounds provided.
testDetails: NCI Yeast Anticancer Drug Screen. Data for the cln2 rad14 strain (AID 165);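 further: 0% = growth equal to vehicle treated cultures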
experimentalParameters: S. cerevisiae cln2 rad14 strain, at 50.0 µM, stronger effect = higher value
About 79,000 compounds went through this panel and 15% of them were active in at least one assay; those are over-represented in the sample as a whole.
Numbers only, in %.

Use the examples below as a reference point.
compound=CC1=CC(=O)Nc2ccccc2S1 measuredendpoint="growth inhibition" unitsymbol=% observedvalue=17
compound="OC1(c2ccccc2)CCCN(Cc2ccccc2)C1 (stereo not given)" measuredendpoint="growth inhibition" unitsymbol=% observedvalue=-17.4
compound=CCOC(=O)CCC(=O)OCC measuredendpoint="growth inhibition" unitsymbol=% observedvalue=16.9
compound="O=C(Nc1ccccc1)C1C2C=CC(C2)C1C(=O)Nc1ccccc1 (stereo not given)" measuredendpoint="growth inhibition" unitsymbol=% observedvalue=-11.7
compound="O=C(NC(c1ccccc1)C(O)C(=O)OCc1ccc2c(c1)C(=O)c1ccccc1C2=O)c1ccccc1 (stereo not given)" measuredendpoint="growth inhibition" unitsymbol=% observedvalue=-0.15

Report growth inhibition for each item below.
1. CC(C)(CO)C(Cl)C(=O)NCCC(=O)O (stereo not given)
2. CCCCN(CCCC)CCC(O)c1cc(-c2ccc(C(F)(F)F)cc2)nc(-c2ccc(C(F)(F)F)cc2)c1 (stereo not given)
3. CCN(CC)C(=O)C1CCCCN1 (stereo not given)
4. CCOC(=O)CCCN(c1sc(C)c(-c2ccccc2)c1C(=O)OCC)S(=O)(=O)c1ccc(C)cc1

1: -2; 2: -8.7; 3: -43.2; 4: -29.3

Take each entry in turn and give its growth inhibition.
1. C=C(C)C(=O)N1c2ccc(OC)cc2CC1C(=O)OCC (stereo not given)
2. Cc1ccc(NC(=O)Oc2cc(C)c(Cl)cc2C(C)C)cc1
3. CCCCCc1c2c(c(CCCCC)c3c1-c1cccc4cccc-3c14)-c1ccc(C)cc1C2
4. c1ccc2c(c1)ccc1nc3c4ccccc4c4ccccc4c3nc12
5. CCOC(=O)c1cnc(SC)nc1Nc1ccc(OC)cc1
6. CC#CCN(C(C)C)C(C)C
7. CC(CO)N1CCCCCC1 (stereo not given)
8. C=CCOC1OC(CS(=O)(=O)O)C(OC(C)=O)C(OC(C)=O)C1OC(C)=O (stereo not given)

1. 12.8
2. -28.2
3. -18.1
4. -3.45
5. 9.6
6. -34.5
7. -17.7
8. 21.6

Provide growth inhibition values for the following items, in order.
1. Cc1ccc(S(=O)(=O)C2c3nc4ccccc4cc3-c3nc4ccccc4nc32)cc1 (stereo not given)
2. CNc1ccc(Cl)cc1C(N)=O
3. CCOC(=O)/C=C\C(=O)O.[Mn]

1: -81.8; 2: -3.25; 3: -22.9

These entries and their values trace back to PubChem BioAssay (NCI).
